Where these numbers come from: ChEMBL document CHEMBL4265937

- measurement.target: Neuropilin-1 (Rattus norvegicus)
- assay.name: Inhibition of biotinylated VEGF-A165 binding to rat NRP1/FC chimera after 40 mins by ELISA
- measurement.conditions: read-out: IC50
Residues, ends and D or L forms follow the SMILES beside them.
reported.metric: IC50 (nM)
Enter your answer as a number in nM; do not include the unit.

Example cases with answers are listed next.
compound	measured.result
N=C(N)NCCC[C@H](NC(=O)[C@@H]1CCCN1C(=O)[C@H](CN)NC(=O)[C@@H](N)CCCCNC(=O)C(N)CCCCN=C(N)N)C(=O)O (stereo not given in full) (HELM PEPTIDE1{K.[NC[C@H](N[*:1])C(=O)[*:2]].P.R}|PEPTIDE2{[N=C(N)NCCCCC(N)C(=O)[*:2]]}$PEPTIDE1,PEPTIDE2,1:R3-1:R2$$$V2.0)	200
N=C(N)NCCC[C@H](NC(=O)[C@@H]1CCCN1C(=O)[C@@H]1CCCN1C(=O)[C@@H](N)CCCCNC(=O)C(N)CCCCN=C(N)N)C(=O)O (stereo not given in full) (HELM PEPTIDE1{K.P.P.R}|PEPTIDE2{[N=C(N)NCCCCC(N)C(=O)[*:2]]}$PEPTIDE1,PEPTIDE2,1:R3-1:R2$$$V2.0)	1000
N=C(N)NCCC[C@H](NC(=O)[C@@H]1CCCN1C(=O)[C@H](CCN)NC(=O)[C@@H](N)CCCCNC(=O)C(N)CCCCN=C(N)N)C(=O)O (stereo not given in full) (HELM PEPTIDE1{K.[Dab].P.R}|PEPTIDE2{[N=C(N)NCCCCC(N)C(=O)[*:2]]}$PEPTIDE1,PEPTIDE2,1:R3-1:R2$$$V2.0)	200

Challenge: // lookup IC50 | system=Neuropilin-1 (Rattus norvegicus) | key= C[C@H](NC(=O)[C@@H]1CCCN1C(=O)[C@@H](N)CCCCNC(=O)C(N)CCCCN=C(N)N)C(=O)N[C@@H](CCCNC(=N)N)C(=O)O (stereo not given in full) (HELM PEPTIDE1{K.P.A.R}|PEPTIDE2{[N=C(N)NCCCCC(N)C(=O)[*:2]]}$PEPTIDE1,PEPTIDE2,1:R3-1:R2$$$V2.0)
Response given: 300

Challenge: Another compound to check: N=C(N)NCCC[C@H](NC(=O)[C@H](CCN)NC(=O)[C@@H]1CCCN1C(=O)[C@@H](N)CCCCNC(=O)C(N)CCCCN=C(N)N)C(=O)O (stereo not given in full) (HELM PEPTIDE1{K.P.[Dab].R}|PEPTIDE2{[N=C(N)NCCCCC(N)C(=O)[*:2]]}$PEPTIDE1,PEPTIDE2,1:R3-1:R2$$$V2.0)
Response given: 200
